- METHOD NOTES: NCI Yeast Anticancer Drug Screen. Data for the mec2-1 strain (AID 157)
- EXPERIMENTAL SETUP: S. cerevisiae mec2-1 strain, at 50.0 µM (retest, dose inferred, filed as 5.0)
- Experimental: Growth inhibition of yeast strains with defined genetic alterations is measured as a screen for potential anti-cancer activity. Selected strains with alterations in DNA damage repair or cell cycle control were exposed to compounds and growth inhibition was measured relative to vehicle treated controls. The strain used in this assay is mec2-1
About 79,000 compounds went through this panel and 15% of them were active in at least one assay; those are over-represented in the sample as a whole. Active and inactive are the calls of the source. Rule as the data show it: active = growth inhibition above about 70%; inactive = the rest.
Bench note: report the call from active, inactive

Query: Hello, I am checking results. What call was entered for O=c1[nH]c(=S)[nH]c(-c2ccccc2)c1Cc1c(O)ccc2ccccc12 ?
Result: inactive

Query: Hello, I am checking results. What call was entered for Cc1cc(Cl)c2c(c1)C(=N/O)/C(=C\c1ccco1)O2 ?
Result: active

Query: Hello, I am checking results. What call was entered for CCOC(=O)C(=O)Nc1ccc(Cl)cc1Cl ?
Result: inactive

Query: Hello, I am checking results. What call was entered for O=C(O)CC(CCCc1ccccc1)C(=O)O (configuration not stated) ?
Result: inactive

Query: Hello, I am checking results. What call was entered for Cc1ccc(S(=O)(=O)Nc2ccc3c(c2)C(=O)c2ccccc2-3)cc1 ?
Result: active

Query: Hello, I am checking results. What call was entered for COc1ccccc1OC(=O)Oc1ccccc1OC ?
Result: inactive

Query: Hello, I am checking results. What call was entered for CCCCCCCCCCCCCCOC(=O)C(N)Cc1ccc(O)cc1 (configuration not stated) ?
Result: active

Query: Hello, I am checking results. What call was entered for CS(=O)(=O)c1nc(Cl)c(Cl)c(C#N)c1Cl ?
Result: active

Query: Hello, I am checking results. What call was entered for OC1(C2CCCCC2)c2ccccc2Cc2ccccc21 ?
Result: active

Query: Hello, I am checking results. What call was entered for CC/C(=C(\CC)c1ccc(O)c(CN(C)C)c1)c1ccc(OC)cc1 ?
Result: active

Query: Hello, I am checking results. What call was entered for CN(C)CCC(/C=C/c1ccccc1)=N\Nc1c(F)c(F)c(F)c(F)c1F ?
Result: inactive

Query: Hello, I am checking results. What call was entered for O=C(O)CSc1nc(-c2ccccc2)c(-c2ccccc2)n1-c1ccccn1 ?
Result: inactive

Query: Hello, I am checking results. What call was entered for CN(C(=S)c1ccccc1)c1ccccc1 ?
Result: inactive

Query: Hello, I am checking results. What call was entered for Nc1ccc(/C=C/c2ccccc2)cc1 ?
Result: inactive

Query: Hello, I am checking results. What call was entered for Cc1cc2nc(CC(=O)c3ccncc3)c(CC(=O)c3ccncc3)nc2cc1C ?
Result: inactive

Query: Hello, I am checking results. What call was entered for O=C(NC(=S)Nc1ncc([N+](=O)[O-])s1)c1ccccc1C(=O)NC(=S)Nc1ncc([N+](=O)[O-])s1 ?
Result: inactive

Query: Hello, I am checking results. What call was entered for Cc1ccc(C2SCc3nc4ccccc4n32)cc1 (configuration not stated) ?
Result: inactive

* * *

- METHOD NOTES: NCI Yeast Anticancer Drug Screen. Data for the bub3 strain (AID 167)
- EXPERIMENTAL SETUP: S. cerevisiae bub3 mutant strain, at 50.0 µM (retest, dose inferred, filed as 5.0)
Compounds without any hit were thinned out: in the full panel of roughly 79,000, 15% have a hit. Activity calls are given as the source filed them. No stated cut-off is given here; in the data, active means growth inhibition above about 70%; inactive means the rest.
Bench note: report the call from active, inactive

Query: Hello, I am checking results. What call was entered for CN(C)c1c([N+](=O)[O-])cc(N2C(=O)C=CC2=O)cc1[N+](=O)[O-] ?
Result: active

Query: Hello, I am checking results. What call was entered for CC(C)(C)C1=NC(=S)SC2=NC(=O)C3(NN21)c1ccccc1-c1ccccc13 ?
Result: active

Query: Hello, I am checking results. What call was entered for N#Cc1snc2sc(=O)sc12 ?
Result: active

Query: Hello, I am checking results. What call was entered for CC(=O)O[C@H]1CC[C@H]2[C@@H]3CCc4cc(O)c(I)cc4[C@H]3CC[C@]12C ?
Result: active

Query: Hello, I am checking results. What call was entered for c1ccc(NCCSc2nc3ccccc3s2)cc1 ?
Result: active

Query: Hello, I am checking results. What call was entered for COc1ccc(C2Oc3c(cccc3OC)C=C2[N+](=O)[O-])cc1 (stereo not given) ?
Result: active

Query: Hello, I am checking results. What call was entered for CCCCSc1n[nH]c(=O)nc1SC ?
Result: active

Query: Hello, I am checking results. What call was entered for Cc1c2ccccc2c(CSC(=N)N)c2ccccc12 ?
Result: active

Query: Hello, I am checking results. What call was entered for O=S1(=O)CS(=O)(=O)OCCCO1 ?
Result: inactive

Query: Hello, I am checking results. What call was entered for Cc1ccc(S(=O)(=O)n2c3c(c4ccccc42)CCN2C(=O)C(S(=O)(=O)c4ccccc4)=CCC32)cc1 (stereo not given) ?
Result: active

Query: Hello, I am checking results. What call was entered for Nc1c(F)cccc1F ?
Result: inactive

Query: Hello, I am checking results. What call was entered for Oc1c(Br)c(Br)c(O)c(Br)c1Br ?
Result: inactive

Query: Hello, I am checking results. What call was entered for CCCCCc1ccc2cc(C(=O)O)[nH]c2c1 ?
Result: inactive

Query: Hello, I am checking results. What call was entered for CC(=O)/C=C1\C(=O)Nc2ccccc21 ?
Result: active

Query: Hello, I am checking results. What call was entered for Cc1cc(Cl)c(O)c(-c2cc(-c3cccc([N+](=O)[O-])c3)c3c(N)[nH]c(=S)nc3n2)c1 ?
Result: inactive

* * *

- METHOD NOTES: NCI Yeast Anticancer Drug Screen. Data for the rad50 strain (AID 155);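 also: 0% = growth of vehicle-only cultures of the same strain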
- EXPERIMENTAL SETUP: S. cerevisiae rad50 strain growth inhibition; at 5.0 µM (retest, dose inferred, filed as 0.5); hits give high values
Compounds without any hit were thinned out: in the full panel of roughly 79,000, 15% have a hit.
QUANTITY KIND: growth inhibition (%)
Return type: number; implicit unit %.

Query: // Input: CC(C)(C)c1ccc(OC(=O)Nc2ccc(Cl)cc2[N+](=O)[O-])c(Br)c1 . Output its growth inhibition only.
Result: -31

Query: // Input: CC1CC(c2ccccc2)CC(C)N1c1ccc2ccccc2c1 (centres undefined) . Output its growth inhibition only.
Result: 9

Query: // Input: COc1ccc(/C=C2\CCC(CN(C)C)C2=O)cc1 (centres undefined) . Output its growth inhibition only.
Result: 19

Query: // Input: COc1ccc2nc3cc(Cl)ccc3c(NCCNCCCNC(=O)c3cc(-c4ccccc4)nc4ccccc34)c2c1 . Output its growth inhibition only.
Result: -14

* * *

Record form. Attribute: growth inhibition. Fill in for each entry.
- METHOD NOTES: NCI Yeast Anticancer Drug Screen. Data for the bub3 strain (AID 167)
- EXPERIMENTAL SETUP: S. cerevisiae bub3 mutant strain, at 5.0 µM (retest, dose inferred, filed as 0.5), hits give high values
About 79,000 compounds went through this panel and 15% of them were active in at least one assay; those are over-represented in the sample as a whole.
Return type: number; implicit unit %.

Query: // Input: Nc1ccc(S(=O)(=O)O)c2cccc(S(=O)(=O)O)c12 . Output its growth inhibition only.
Result: 0

Query: // Input: O=C1C2=C(Nc3cc([N+](=O)[O-])ccc3N2)OC1c1c2ccccc2cc2ccccc12 (centres undefined) . Output its growth inhibition only.
Result: 34

Query: // Input: O=C(Nc1cccc(Br)c1)Oc1cccc2cccnc12 . Output its growth inhibition only.
Result: 91

Query: // Input: Cn1cc(NC(=O)c2cc(NC(=O)CCCCCCCC(=O)Nc3cc(C(=O)Nc4cc(C(=O)NCCC(=N)N)n(C)c4)n(C)c3)cn2C)cc1C(=O)NCCC(=N)N . Output its growth inhibition only.
Result: 88

Query: // Input: O=[N+]([O-])c1cccc2nc3ccccc3c(NCCO)c12 . Output its growth inhibition only.
Result: 28

Query: // Input: Cc1ccc(SSCCCCCS(=O)O)cc1 . Output its growth inhibition only.
Result: 10

Query: // Input: O=C1C=CC(=Nc2cc3c(cc2Br)-c2ccccc2C3Br)O1 (centres undefined) . Output its growth inhibition only.
Result: 7

Query: // Input: COCCCNC(=S)N/N=C/c1cc(Cl)cc(Cl)c1O . Output its growth inhibition only.
Result: 4

Query: // Input: CC(=O)OCC(=O)[C@@]1(O)CC[C@H]2[C@@H]3CCC4=CC(=O)C=C[C@]4(C)[C@@]3(F)[C@@H](O)C[C@@]21C . Output its growth inhibition only.
Result: -2

* * *

- METHOD NOTES: NCI Yeast Anticancer Drug Screen. Data for the rad50 strain (AID 155);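 also: 0% = growth of vehicle-only cultures of the same strain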
- EXPERIMENTAL SETUP: S. cerevisiae rad50 strain growth inhibition; at 50.0 µM (retest, dose inferred, filed as 5.0)
- Description: Growth inhibition of yeast strains with defined genetic alterations is measured as a screen for potential anti-cancer activity. Selected strains with alterations in DNA damage repair or cell cycle control were exposed to compounds and growth inhibition was measured relative to vehicle treated controls. The strain used in this assay is rad50
Compounds without any hit were thinned out: in the full panel of roughly 79,000, 15% have a hit. Activity calls are given as the source filed them. Rule as the data show it: active = growth inhibition above about 70%; inactive = the rest.
Bench note: report the call from Y = active, N = inactive

Query: Hello, I am checking results. What call was entered for CCCCNCCCCCCCCCCCl ?
Result: Y

Query: Hello, I am checking results. What call was entered for Fc1ccc(CN2COc3c(cc(Cl)c4cccnc34)C2)cc1 ?
Result: Y

Query: Hello, I am checking results. What call was entered for Cc1cc(C)c(C(=O)/C=C/C(=O)c2ccccc2)c(C)c1 ?
Result: Y

Query: Hello, I am checking results. What call was entered for CSc1ccc(/C=N/NC(N)=S)cc1 ?
Result: N

Query: Hello, I am checking results. What call was entered for Oc1c(Cl)cc(Br)cc1Cl ?
Result: Y

Query: Hello, I am checking results. What call was entered for CNC(=O)N1N[C@H](c2ccccc2)[C@@H]1c1ccccc1 ?
Result: N

Query: Hello, I am checking results. What call was entered for Cc1ccnc(NC(c2ccccc2)c2ccc3cccnc3c2O)c1 (stereo not drawn) ?
Result: Y

Query: Hello, I am checking results. What call was entered for O=Cc1cc(O)ccc1Br ?
Result: Y

Query: Hello, I am checking results. What call was entered for CCOC(=O)/C=C(\C)OCC ?
Result: N

Query: Hello, I am checking results. What call was entered for S=C1Nc2cnc3ccccc3c2SC1c1ccccc1 (stereo not drawn) ?
Result: Y

Query: Hello, I am checking results. What call was entered for Cc1[nH]nc(-c2ccon2)c1N=O ?
Result: N

Query: Hello, I am checking results. What call was entered for CC(C)C(OC(=O)c1ccc(NCc2cc(O)ccc2O)cc1)C(C)C ?
Result: Y

Query: Hello, I am checking results. What call was entered for CN(Cc1cnc2nc(N)nc(N)c2n1)c1ccc(C(=O)NC(CCC(=O)O)C(=O)O)cc1 (stereo not drawn) ?
Result: N

Query: Hello, I am checking results. What call was entered for CC(=O)Nc1ccc(/S(=N\S(=O)(=O)c2ccc(C)cc2)c2ccc(NC(C)=O)cn2)cc1 (stereo not drawn) ?
Result: N

Query: Hello, I am checking results. What call was entered for Cc1cc(N(CCC#N)CCC#N)ccc1/C(N=Nc1cccc([N+](=O)[O-])c1)=N/NC(=O)c1cc(Cl)ccc1O ?
Result: N

Query: Hello, I am checking results. What call was entered for NC(CCCNc1nc(O)cc(=O)[nH]1)C(=O)O (stereo not drawn) ?
Result: N

Query: Hello, I am checking results. What call was entered for CC(=O)OCC1OC(OC(C)=O)C(On2nnc3c(-c4ccccc4)c(C)nn32)C(OC(C)=O)C1OC(C)=O (stereo not drawn) ?
Result: N

Query: Hello, I am checking results. What call was entered for CC(=O)O[C@H]1CC[C@]2(C)C3=CC[C@]4(C)[C@@H](C(C)=O)CC[C@H]4[C@@]34C=C[C@]2(C1)C1C(=O)OC(=O)C14 (stereo partly drawn) ?
Result: N

Query: Hello, I am checking results. What call was entered for CC1=C(C(=O)Nc2ccccc2)C(c2cccc([N+](=O)[O-])c2)C(C(=O)Nc2ccccc2)=C(C)N1 ?
Result: N

Query: Hello, I am checking results. What call was entered for CNC(=O)OC(C)CN1c2ccccc2Sc2ccc(Cl)cc21 (stereo not drawn) ?
Result: Y

Query: Hello, I am checking results. What call was entered for Cc1cc(Cl)c2c(c1)C(=N/O)/C(=C\c1ccco1)O2 ?
Result: Y

Query: Hello, I am checking results. What call was entered for CC(C)SCC1CO1 (stereo not drawn) ?
Result: N

Query: Hello, I am checking results. What call was entered for CC(C)(CN1CCCCC1)C(=O)CC(SCCS(=O)(=O)O)c1ccc(Cl)cc1 (stereo not drawn) ?
Result: Y
